Each entry below lists one item and its recorded log10 IC50 value.
system.tested: EGFR (D770_N771insNPG) (Homo sapiens, UniProt P00533, INS770NPG)
Sequence (P00533 with tags, fused parts or gaps INS770NPG limits assumed): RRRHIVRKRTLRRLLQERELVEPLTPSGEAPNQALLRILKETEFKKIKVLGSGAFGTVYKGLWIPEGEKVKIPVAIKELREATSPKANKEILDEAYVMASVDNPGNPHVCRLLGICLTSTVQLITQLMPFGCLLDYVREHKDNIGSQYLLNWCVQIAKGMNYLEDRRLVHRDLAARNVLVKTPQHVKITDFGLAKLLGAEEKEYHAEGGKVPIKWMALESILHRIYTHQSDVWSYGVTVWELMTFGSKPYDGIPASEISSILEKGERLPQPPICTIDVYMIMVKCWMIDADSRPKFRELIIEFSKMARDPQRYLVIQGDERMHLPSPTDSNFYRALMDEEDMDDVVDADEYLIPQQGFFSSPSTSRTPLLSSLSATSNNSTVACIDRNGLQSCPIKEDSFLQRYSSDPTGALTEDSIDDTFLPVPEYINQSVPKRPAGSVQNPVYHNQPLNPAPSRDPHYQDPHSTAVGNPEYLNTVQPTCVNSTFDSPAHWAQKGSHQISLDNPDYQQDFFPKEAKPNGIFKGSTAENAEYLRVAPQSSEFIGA
method: HotSpot radiometric kinase assay, inhibition of EGFR (D770_N771insNPG) mutant
condition.notes: 33P ATP, room temperature, 120 m
A value of 2 here means IC50 of 100 in nM, since values are log10.

What value of measured log10 IC50 is listed for CCOc1nn([C@@H](C)CO)c2c1/C=C/c1n[nH]c3c(C)nc(cc13)-c1c(C)nn(C)c1O[C@@H](C)CN(C)C2 [Ex. 54] ?
-0.26

Return reported log10 IC50; argument: Cc1nn(C)c2c1-c1cc3c(n[nH]c3cn1)/C=C/c1c(OCC#N)nn([C@@H](C)CO)c1CN(C)C[C@H](C)O2 [Ex. 53]
-0.35

Sample CCOc1nn(CCO)c2c1/C=C/c1n[nH]c3cnc(cc13)-c1c(C)nn(C)c1OCCN(C)C2 [Ex. 68] — what was its log10 IC50?
-0.02

Quick one: log10 IC50 of CC(C)Oc1nn(CCO)c2c1/C=C/c1n[nH]c3cnc(cc13)-c1cnn(C)c1O[C@@H](C)CN(C)C2 [Ex. 5] ?
-1.10

Entry CCOc1nn(CCO)c2c1/C=C/c1n[nH]c3cnc(cc13)-c1cnn(C)c1O[C@@H](C)CN(C1CC1)C2 [Ex. 30] has what log10 IC50?
-0.82

Entry CCOc1nn(CCO)c2c1/C=C/c1n[nH]c3cnc(cc13)-c1c(c(C)nn1C)OCCN(C)C2 [Ex. 69] : reported log10 IC50 = ?
1.18
